B1: Myocardin, residues 363 to 406; numbered along this chain, Q8IZQ8 (parent)
chain: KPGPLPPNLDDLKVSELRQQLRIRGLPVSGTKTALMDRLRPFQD

Variants of: B1
PROTOCOL NOTES: abundance fitness (aPCA) (normalised: wild type 0, dead -1); higher = more abundant; growth selection in yeast, the domain comes from the species named
TEST PARAMETERS: Homo sapiens
Would you mind sorting the entries by abundance fitness according to these classes? bottom end (below -0.5), midrange (-0.5 to below -0.2), top end (-0.2 or more)

INSERT INTO assay_data (seq_text, class_assignment) VALUES
  ('KPGPLPPNLDDLKVSELRQQLRIRGLQVSGTKTALMDRLRPFQD [P27Q]', 'top end'),
  ('KPGPLPPNLDDLKVSELRQQLNIRGLPVSGTKTALMDRLRPFQD [R22N]', 'midrange'),
  ('KPGPLPPNLDDLKVSELRQQLRIRGLPVSGTKTALMDRLRPAQD [F42A]', 'top end'),
  ('KPGPLPPNLDDLKVSELRQQLRIRGLPVSGTKTALMDRERPFQD [L39E]', 'bottom end'),
  ('KPGPLPPNLDDLKVSELRQQSRIRGLPVSGTKTALMDRLRPFQD [L21S]', 'bottom end');

# input Kindly state the category for this variant: KPGPLPPNLDDLKVSELRQQLRIRGLPVSGTKTALMDRLRYFQD [P41Y]
# output midrange

# input Which category fits this record: KWGPLPPNLDDLKVSELRQQLRIRGLPVSGTKTALMDRLRPFQD [P2W]
# output midrange

# input Assign a category based on measured abundance fitness for KPGPLPPNLDDLKVSPLRQQLRIRGLPVSGTKTALMDRLRPFQD [E16P] and give only the class name.
# output bottom end

# input // bin(item) where item = KPGPLPPNLDDLKVSELRQQLRIRGLPVSGTKTALMHRLRPFQD [D37H]
# output midrange

# input Which class holds KPGPLPPNLDDLKVSELRQQLRIRPLPVSGTKTALMDRLRPFQD [G25P] ?
# output bottom end

# input Hey, which category is KPGPLPPNLDDLKVSELRQQLRIRGLPVSGTKTALMDRLRPKQD [F42K] in, do you know?
# output top end

# input Looking at KPGPLPPNLDDLKVSELRQLLRIRGLPVSGTKTALMDRLRPFQD [Q20L] , which class would you pick?
# output top end

# input Please classify: KPGPLPPNTDDLKVSELRQQLRIRGLPVSGTKTALMDRLRPFQD [L9T]
# output bottom end

# input Input KPGPLPPNLDDLKVSELRQQLRIRGLPRSGTKTALMDRLRPFQD [V28R] ; output its category
# output bottom end

Data credit: the Human Domainome abundance scans (Beltran et al. 2025)
